Catalogue of Kb readings, one per entry.
# System: rabbit aortic rings
# run_description: Assay B: In vitro vascular smooth muscle response for AII (antagonist activity, pA2)
# Type: cell-based
# conditions: Oryctolagus cuniculus, in vitro vascular smooth muscle response; two values per cell separated by / are separate determinations; read-out: Assay B pA2 (converted)
Give a bare numeral; the unit nM is implied.

Example entries and their recorded answers appear below.
> print(dat)
                                   compound        tested.system  readout.units  assay.value
1  CCCCc1nc(C(F)F)nn1Cc1ccc(-c2ccccc2-c2nnn[nH]2)cc1  rabbit aortic rings             nM         14.1
2  CCCCc1nc(CNC(=O)CCC(NC(C)=O)C(=O)OC(C)(C)C)nn1Cc1ccc(-c2ccccc2-c2nnn[nH]2)cc1 (centres unmarked)  rabbit aortic rings             nM         2090
3  CCCCn1nc(C(C#N)CCC)n(Cc2ccc(-c3ccccc3-c3nn[nH]n3)cc2)c1=O (centres unmarked)  rabbit aortic rings             nM           20
4  CCCn1nc(C(OC)OC)nc1Cc1ccc(-c2ccccc2-c2nnn[nH]2)nc1  rabbit aortic rings             nM         51.3
5  CCCCCn1nc(CCCC)n(Cc2ccc(-c3ccccc3-c3nn[nH]n3)cc2)c1=O  rabbit aortic rings             nM            1
6  CCCn1nc(C(F)(F)CCC)nc1Cc1ccc(-c2ccccc2-c2nnn[nH]2)nc1  rabbit aortic rings             nM         16.6
7  CCCCn1nc(C(OC(C)C)OC(C)C)nc1Cc1ccc(-c2ccccc2-c2nnn[nH]2)nc1  rabbit aortic rings             nM         28.8

Note: attention shifts to another entry.
Any idea what Kb was measured for CCCCc1ncn(Cc2ccc(-c3ccccc3-c3nnn[nH]3)cc2)n1 ?
955

* * *

# tested_system: angiotensin II AT1 receptor
# run_description: Assay A: Angiotensin II binding activity (125I-AII displacement, rat uterine membrane preparation)
readout_name: pIC50
Please note pIC50 is a logarithmic value: minus log10 of concentration in mol/L. Answer with that number alone.

Example entries and their recorded answers appear below.
> print(dat)
                                   molecule  assay.value
1  CCCCc1nn(CC(O)c2cc(OC)ccc2OC)c(=O)n1Cc1ccc(-c2ccccc2-c2nn[nH]n2)cc1 (stereo not shown)         7.66
2  CCCCc1nc(CCCO)nn1Cc1ccc(-c2ccccc2-c2nnn[nH]2)cc1         8.36
3  CCCCc1ncn(Cc2ccc(-c3ccccc3-c3nnn[nH]3)cc2)n1         5.51

Note: attention shifts to another entry.
Any idea what pIC50 was measured for CCCCc1nn(CCCCC(=O)O)c(=O)n1Cc1ccc(-c2ccccc2-c2nn[nH]n2)cc1 ?
7.92

* * *

# tested_system: angiotensin II AT1 receptor
# run_description: Assay A: Angiotensin II binding activity (125I-AII displacement, rat uterine membrane preparation)
Lab note: anything with IC50 below 200 nM is marked class 1; values at 200 nM or higher are marked class 0.

Strictly below 200 nM in IC50? CCCCc1nc(C(=O)NC)nn1Cc1ccc(-c2ccccc2-c2nnn[nH]2)nc1
class 1

Strictly below 200 nM in IC50? CCCCc1cn(CCC(C)C)c(=O)n1Cc1ccc(-c2ccccc2-c2nnn[nH]2)nc1
class 1

Strictly below 200 nM in IC50? CCCCn1nc(C2OCC(C)(C)CO2)nc1Cc1ccc(-c2ccccc2-c2nnn[nH]2)nc1
class 1

Strictly below 200 nM in IC50? CCCCc1nn(C(C)(C)C(=O)c2ccccc2)c(=O)n1Cc1ccc(-c2ccccc2-c2nn[nH]n2)cc1
class 1

Strictly below 200 nM in IC50? CCCn1nc(C(C)(F)F)nc1Cc1ccc(-c2ccccc2-c2nnn[nH]2)nc1
class 0

Strictly below 200 nM in IC50? CCCCc1nc(C(=O)CCC)nn1Cc1ccc(-c2ccccc2-c2nnn[nH]2)cc1 [Compound 30]
class 1

Strictly below 200 nM in IC50? CCCCc1ncnn1Cc1ccc(-c2ccccc2C(=O)O)cc1
class 0

Strictly below 200 nM in IC50? CCCCc1nc(CF)n(Cc2ccc(-c3ccccc3-c3nnn[nH]3)cc2)n1
class 0

Strictly below 200 nM in IC50? CCCCc1nc(C(=O)Cc2ccccc2)nn1Cc1ccc(-c2ccccc2-c2nnn[nH]2)cc1
class 1

Strictly below 200 nM in IC50? CCCCc1nc2c(O)nnc(O)c2n1Cc1ccc(-c2ccccc2C(=O)O)cc1
class 0

Strictly below 200 nM in IC50? CCCn1cc(CC(C)C)n(Cc2ccc(-c3ccccc3-c3nnn[nH]3)nc2)c1=O
class 0

Strictly below 200 nM in IC50? CCCCc1nc(CNC(=O)OC(C)(C)C)nn1Cc1ccc(-c2ccccc2-c2nnn[nH]2)cc1
class 1

Strictly below 200 nM in IC50? CCCCc1nc(C2CCCCC2)n(Cc2ccc(-c3ccccc3-c3nnn[nH]3)cc2)n1
class 1

Strictly below 200 nM in IC50? CCCCc1nc(Cc2ccc(-c3ccccc3-c3nnn[nH]3)nc2)n(CCCC)n1
class 1

* * *

Catalogue of inhibition at 30 mg/kg readings, one per entry.
# Tested on: pressor response to AII
# run_description: Assay C: In vivo intragastric pressor assay response for AII antagonists
# Parameters: species or system rat
# conditions: Rattus norvegicus, dose 30 mg/kg, intragastric, or intraduodenal for examples listed
Give a bare numeral; the unit % is implied.

Example entries and their recorded answers appear below.
> print(dat)
                                   compound            tested.system  assay.value
1  CCCCc1nc2c(O)nnc(O)c2n1Cc1ccc(-c2ccccc2C(=O)O)cc1 [Compound 109]  pressor response to AII           50
2  CCCCc1nc(Cl)n(Cc2ccc(-c3ccccc3-c3nnn[nH]3)cc2)n1 [compound 9]  pressor response to AII           80

Note: attention shifts to another entry.
Param readout= inhibition at 30 mg/kg; system= pressor response to AII; entry= CCCCc1nc(CCCC)n(Cc2ccc(-c3ccccc3C(=O)O)cc2)n1 [compound 2] ; returns value.
98

* * *

# tested_system: angiotensin II AT1 receptor
# run_description: Assay A: Angiotensin II binding activity (125I-AII displacement, rat uterine membrane preparation)
pIC50: −log10 of the molar value.
# binarize pIC50: threshold 7 inclusive, high side criterion met, low side criterion not met

Illustrative cases are given below, each with its answer.
> print(dat)
                           structure.string              label
1  CCCCc1nn(CC(=O)OCC)c(=O)n1Cc1ccc(-c2ccccc2-c2nn[nH]n2)cc1      criterion met
2  CCCCc1nc(CC(OCC)OCC)n(Cc2ccc(-c3ccccc3-c3nnn[nH]3)cc2)n1  criterion not met
3  CCCCc1cn(-c2c(C(C)C)cccc2C(C)C)c(=O)n1Cc1ccc(-c2ccccc2-c2nnn[nH]2)nc1      criterion met

Tell me whether pIC50 is at least 7 here: CCCCc1nc(C(=O)N(C)C(C)(C)C)nn1Cc1ccc(-c2ccccc2-c2nnn[nH]2)nc1
criterion met

Tell me whether pIC50 is at least 7 here: CCCCc1nc(CC(CC)CC)n(Cc2ccc(-c3ccccc3-c3nnn[nH]3)nc2)n1
criterion met

Tell me whether pIC50 is at least 7 here: CCCCc1nc(-c2ccccc2C(C)C)nn1Cc1ccc(-c2ccccc2-c2nnn[nH]2)nc1
criterion met

* * *

# tested_system: angiotensin II AT1 receptor
# run_description: Assay A: Angiotensin II binding activity (125I-AII displacement, rat uterine membrane preparation)
# Method: Assay A: Antiotensin II Binding Activity Compounds of the invention were tested for ability to bind to the smooth muscle angiotensin II receptor using a rat uterine membrane preparation. […] Rat uterine membranes were prepared from fresh tissue. […] Filters were assayed for radioactivity in a Micromedic gamma counter. Nonspecific binding was defined as binding in the presence of 10 μM of unlabelled AII. Specific binding was calculated as total binding minus nonspecific binding. […]
Lab note: anything with IC50 below 100 nM is marked y; values at 100 nM or higher are marked n.

> print(dat)
                                   compound  label
1  CCCCc1nc(C=O)nn1Cc1ccc(-c2ccccc2-c2nnn[nH]2)cc1 [Compound 49]      n
2  CCCCn1cc(CC(C)C)n(Cc2ccc(-c3ccccc3-c3nnn[nH]3)nc2)c1=O [Compound 188]      n
3  CCCCc1nc(CCCC)n(Cc2ccc(-c3ccccc3C(=O)O)nc2)n1 [Compound 240]      n
4  CCCCc1cn(CCCC)c(=O)n1Cc1ccc(-c2ncccc2-c2nnn[nH]2)cc1 [Compound 224]      y

Strictly below 100 nM in IC50? CCCc1nc(CCC)n(Cc2ccc(-c3ccccc3-c3nnn[nH]3)nc2)n1 [Compound 246]
y

Strictly below 100 nM in IC50? CCCCn1nc(C(C)(F)F)nc1Cc1ccc(-c2ccccc2-c2nnn[nH]2)nc1 [Compound 166]
n
